Tested on: Streptococcus sanguinis
Test description: In vitro antimicrobial activity against aerobic bacteria Streptococcus sanguis MX132
Type: functional
Result type: MIC (µg/mL)

- Compound: "CC[C@H]1OC(=O)C[C@@H](O)[C@H](C)[C@@H](O[C@@H]2O[C@H](C)[C@@H](O)[C@H](N(C)C)[C@H]2O)[C@@H](CC=O)C[C@@H](C)C(=O)/C=C/C(C)=C/[C@@H]1CO[C@@H]1O[C@H](C)[C@@H](O)[C@@H](OC)[C@H]1OC"
  Result type: "MIC"
  Reported: 0.5
- Compound: "CC[C@H]1OC(=O)C[C@@H](O)[C@H](C)[C@@H](O[C@@H]2O[C@H](C)[C@@H](O[C@H]3C[C@@](C)(O)[C@@H](O)[C@H](C)O3)[C@H](N(C)C)[C@H]2O)[C@@H](CC=O)C[C@@H](C)C(=O)/C=C/C(C)=C/[C@@H]1CO[C@@H]1O[C@H](C)[C@@H](O)[C@@H](OC)[C@H]1OC [TYLOSIN]"
  Result type: "MIC"
  Reported: 0.5
- Compound: "CC[C@H]1OC(=O)C[C@@H](O)[C@H](C)[C@@H](O[C@@H]2O[C@H](C)[C@@H](O)[C@H](N(C)C)[C@H]2O)[C@@H](CCOc2ccccc2)C[C@@H](C)C(=O)/C=C/C(C)=C/[C@@H]1CO[C@@H]1O[C@H](C)[C@@H](O)[C@@H](OC)[C@H]1OC"
  Result type: "MIC"
  Reported: 1
- Compound: "CC[C@H]1OC(=O)C[C@@H](O)[C@H](C)[C@@H](O[C@@H]2O[C@H](C)[C@@H](O[C@H]3C[C@@](C)(O)[C@@H](O)[C@H](C)O3)[C@H](N(C)C)[C@H]2O)[C@@H](CCOc2ccccc2)C[C@@H](C)C(=O)/C=C/C(C)=C/[C@@H]1CO[C@@H]1O[C@H](C)[C@@H](O)[C@@H](OC)[C@H]1OC"
  Result type: "MIC"
  Reported: 8
- Compound: "CC[C@H]1OC(=O)C[C@@H](O)[C@H](C)[C@@H](O[C@@H]2O[C@H](C)[C@@H](O[C@H]3C[C@@](C)(O)[C@@H](O)[C@H](C)O3)[C@H](N(C)C)[C@H]2O)[C@@H](CC=O)C[C@@H](C)C(=O)/C=C/C(C)=C/[C@@H]1CO"
  Result type: "MIC"
  Reported: 0.25
- Compound: "CC[C@H]1OC(=O)C[C@@H](O)[C@H](C)[C@@H](O[C@@H]2O[C@H](C)[C@@H](O)[C@H](N(C)C)[C@H]2O)[C@@H](CC=O)C[C@@H](C)C(=O)/C=C/C(C)=C/[C@@H]1CO"
  Result type: "MIC"
  Reported: 0.25
- Compound: "CC[C@H]1OC(=O)C[C@@H](O)[C@H](C)[C@@H](O[C@@H]2O[C@H](C)[C@@H](O)[C@H](N(C)C)[C@H]2O)[C@@H](CCN=[N+]=[N-])C[C@@H](C)C(=O)/C=C/C(C)=C/[C@@H]1CO[C@@H]1O[C@H](C)[C@@H](O)[C@@H](OC)[C@H]1OC"
  Result type: "MIC"
  Reported: 1
- Compound: "CC[C@H]1OC(=O)[C@H](C)[C@@H](O[C@H]2C[C@@](C)(OC)[C@@H](O)[C@H](C)O2)[C@H](C)[C@@H](O[C@@H]2O[C@H](C)C[C@H](N(C)C)[C@H]2O)[C@](C)(O)C[C@@H](C)C(=O)[C@H](C)[C@@H](O)[C@]1(C)O [ERYTHROMYCIN]"
  Result type: "MIC"
  Reported: 0.03
- Compound: "CC[C@H]1OC(=O)C[C@@H](O)[C@H](C)[C@@H](O[C@@H]2O[C@H](C)[C@@H](O)[C@H](N(C)C)[C@H]2O)[C@@H](CCN2C(=O)c3ccccc3C2=O)C[C@@H](C)C(=O)/C=C/C(C)=C/[C@@H]1CO[C@@H]1O[C@H](C)[C@@H](O)[C@@H](OC)[C@H]1OC"
  Result type: "MIC"
  Reported: 2
- Compound: "CC[C@H]1C[C@@H](C)C(=O)/C=C/C(C)=C/[C@H](CO[C@@H]2O[C@H](C)[C@@H](O)[C@@H](OC)[C@H]2OC)[C@@H](CC)OC(=O)C[C@@H](O)[C@H](C)[C@H]1O[C@@H]1O[C@H](C)[C@@H](O)[C@H](N(C)C)[C@H]1O"
  Result type: "MIC"
  Reported: 2

---

Tested on: Staphylococcus aureus
Test description: In vitro antimicrobial activity against Staphylococcus aureus X1
Assay type: functional
Below is a list of entries, each paired with its recorded MIC value.
Result type: MIC (µg/mL)

- Sample smiles: "CC[C@H]1OC(=O)C[C@@H](O)[C@H](C)[C@@H](O[C@@H]2O[C@H](C)[C@@H](O[C@H]3C[C@@](C)(O)[C@@H](O)[C@H](C)O3)[C@H](N(C)C)[C@H]2O)[C@@H](CCSc2nnnn2C)C[C@@H](C)C(=O)/C=C/C(C)=C/[C@@H]1CO[C@@H]1O[C@H](C)[C@@H](O)[C@@H](OC)[C@H]1OC"
  Reported: 0.5
- Sample smiles: "CC[C@H]1OC(=O)C[C@@H](O)[C@H](C)[C@@H](O[C@@H]2O[C@H](C)[C@@H](O)[C@H](N(C)C)[C@H]2O)[C@@H](CCS(=O)(=O)c2ccc(C)cc2)C[C@@H](C)C(=O)/C=C/C(C)=C/[C@@H]1CO[C@@H]1O[C@H](C)[C@@H](O)[C@@H](OC)[C@H]1OC"
  Reported: 0.25
- Sample smiles: "CC[C@H]1OC(=O)C[C@@H](O)[C@H](C)[C@@H](O[C@@H]2O[C@H](C)[C@@H](O[C@H]3C[C@@](C)(O)[C@@H](O)[C@H](C)O3)[C@H](N(C)C)[C@H]2O)[C@@H](CCO)C[C@@H](C)C(=O)/C=C/C(C)=C/[C@@H]1CO[C@@H]1O[C@H](C)[C@@H](O)[C@@H](OC)[C@H]1OC"
  Reported: 4
- Sample smiles: "CC[C@H]1OC(=O)C[C@@H](O)[C@H](C)[C@@H](O[C@@H]2O[C@H](C)[C@@H](O)[C@H](N(C)C)[C@H]2O)[C@@H](CCOC(C(F)(F)F)C(F)(F)F)C[C@@H](C)C(=O)/C=C/C(C)=C/[C@@H]1CO[C@@H]1O[C@H](C)[C@@H](O)[C@@H](OC)[C@H]1OC"
  Reported: 0.5

---

System: Streptococcus pyogenes
Test description: In vitro antimicrobial activity against Streptococcus pyogenes C203
Type: functional
Below is a list of entries, each paired with its recorded MIC value.
Result type: MIC (µg/mL)

- Sample smiles: "CC[C@H]1C[C@@H](C)C(=O)/C=C/C(C)=C/[C@H](C)[C@@H](CC)OC(=O)C[C@@H](O)[C@H](C)[C@H]1O[C@@H]1O[C@H](C)[C@@H](O)[C@H](N(C)C)[C@H]1O"
  Study target: "Streptococcus pyogenes"
  Result type: "MIC"
  Measure unit: "µg/mL"
  Reported: 8
- Sample smiles: "CC[C@H]1OC(=O)C[C@@H](O)[C@H](C)[C@@H](O[C@@H]2O[C@H](C)[C@@H](O[C@H]3C[C@@](C)(O)[C@@H](O)[C@H](C)O3)[C@H](N(C)C)[C@H]2O)[C@@H](CCO)C[C@@H](C)C(=O)/C=C/C(C)=C/[C@@H]1CO[C@@H]1O[C@H](C)[C@@H](O)[C@@H](O)[C@H]1OC"
  Study target: "Streptococcus pyogenes"
  Result type: "MIC"
  Measure unit: "µg/mL"
  Reported: 4
- Sample smiles: "CC[C@H]1OC(=O)C[C@@H](O)[C@H](C)[C@@H](O[C@@H]2O[C@H](C)[C@@H](O[C@H]3C[C@@](C)(O)[C@@H](O)[C@H](C)O3)[C@H](N(C)C)[C@H]2O)[C@@H](CCNCCc2ccccc2)C[C@@H](C)C(=O)/C=C/C(C)=C/[C@@H]1CO[C@@H]1O[C@H](C)[C@@H](O)[C@@H](OC)[C@H]1OC"
  Study target: "Streptococcus pyogenes"
  Result type: "MIC"
  Measure unit: "µg/mL"
  Reported: 1
- Sample smiles: "CC[C@H]1OC(=O)C[C@@H](O)[C@H](C)[C@@H](O[C@@H]2O[C@H](C)[C@@H](O)[C@H](N(C)C)[C@H]2O)[C@@H](CCO[N+](=O)[O-])C[C@@H](C)C(=O)/C=C/C(C)=C/[C@@H]1CO[C@@H]1O[C@H](C)[C@@H](O)[C@@H](OC)[C@H]1OC"
  Study target: "Streptococcus pyogenes"
  Result type: "MIC"
  Measure unit: "µg/mL"
  Reported: 0.25
